Parameter LD50 at 336 h: see the listing below.
experiment: Acute oral toxicity, single oral application, 14 day LD50; parameters: species or system SPF-Wistar-Ratten; details: rat, in vivo, männliche Ratten, read-out: 14 Tage LD50
metric_name: LD50 at 336 h (mg/kg)

{"molecule": "CCCCCCCCCCCN1CCCCC1", "observed_value": 593}
{"molecule": "CCOC(=O)C(c1ccccc1)N1CCCCC1 (centres unmarked)", "observed_value": 9750}

---

system: Kornkäfer (sitophilus granarius L); test: whole plant or invertebrate; assay type: in vivo; settings: amine 1 mg/ml mixed 1 : 1 with Ripcord 0,01 mg/ml; 3 h
Listed next: entries and their corresponding Wirksamkeit in % Substanz +Ripcord.

{"compound": "CCCCCCCCCCCCN1CCCCCC1", "Wirksamkeit in % Substanz +Ripcord": "64,0%"}
{"compound": "CCOC(=O)CC(C(=O)OCC)N1CCCCC1 (stereo not shown)", "Wirksamkeit in % Substanz +Ripcord": "97,2%"}
{"compound": "c1ccc(C(c2ccccc2)N2CCOCC2)cc1", "Wirksamkeit in % Substanz +Ripcord": "72,0%"}
{"compound": "CCC/C=C(\\CC)CN1CCCC1 [cis-3-N-pyrrolidino-methyl-hepten-(3)]", "Wirksamkeit in % Substanz +Ripcord": "50,8%"}
{"compound": "CCCCCCCCCN1CCCCCC1", "Wirksamkeit in % Substanz +Ripcord": "97,2%"}
{"compound": "c1ccc(OCCCN2CCCCC2)cc1", "Wirksamkeit in % Substanz +Ripcord": "93,2%"}
{"compound": "c1ccc(OCCN2CCCCC2)cc1", "Wirksamkeit in % Substanz +Ripcord": "84,0%"}
{"compound": "OCC(CO)(CO)CN1CCCCC1", "Wirksamkeit in % Substanz +Ripcord": "62,8%"}
{"compound": "C=CC(C)(CCC=C(C)C)N1CCCCCC1 (stereo not shown)", "Wirksamkeit in % Substanz +Ripcord": "76,0%"}
{"compound": "CCCCCC(C=O)CN1CCCCC1 (stereo not shown)", "Wirksamkeit in % Substanz +Ripcord": "49,2%"}

---

test system: Kornkäfer (sitophilus granarius L); assay: whole plant or invertebrate; assay type: in vivo; conditions: amine 1 mg/ml mixed 1 : 1 with Ripcord 0,01 mg/ml; 3 h
metric_name: Wirksamkeit in % Substanz +Ripcord

{"molecule": "CN(C)C(=O)N1CCCCCC1", "metric_name": "Wirksamkeit in % Substanz +Ripcord", "observed_value": "77,2%"}
{"molecule": "CCCCCCCCCCN1CCCC1", "metric_name": "Wirksamkeit in % Substanz +Ripcord", "observed_value": "100,0%"}
{"molecule": "C=CC(C)(CCC=C(C)CCC=C(C)C)N1CCCC1 (stereo not drawn)", "metric_name": "Wirksamkeit in % Substanz +Ripcord", "observed_value": "94,8%"}

---

tested on: Drosophila melanogaster; test: whole plant or invertebrate; format: in vivo; details: 1 ml 0,05%ige amine solution + 1 ml 0,0001%ige Dimetilan solution

{"compound": "CCCCCCCCCCN1CCCCC1CC (centres unmarked) [N-1-Decyl-2-ethyl-piperidin]", "Wirksamkeit in % Substanz +Dimeti-lan": "56,3%"}
{"compound": "CCCCCCCCCCCCCN1CCCCC1 [N-1-Tridecyl-piperidin]", "Wirksamkeit in % Substanz +Dimeti-lan": "2,3%"}
{"compound": "CCCCCCCCCCN1CCCCCC1 [N-Decyl-hexamethylenimin]", "Wirksamkeit in % Substanz +Dimeti-lan": "68,8%"}
{"compound": "CCCCCCCCCCCCCCN1CCOCC1 [N-1-Tetradecyl-morpholin]", "Wirksamkeit in % Substanz +Dimeti-lan": "2,5%"}
{"compound": "C(=CC1CCCCC1)CN1CCCC1 [N-(3-Cyclohexyl-propen-(2))-pyrrolidin]", "Wirksamkeit in % Substanz +Dimeti-lan": "0%"}

---

system: Kornkäfer (sitophilus granarius L); assay: whole plant or invertebrate; format: in vivo; conditions: amine 1 mg/ml mixed 1 : 1 with Talcord 0,01 mg/ml; 3 h
In this section, each of the compounds is paired with its reported Wirksamkeit in % Substanz +Talcord.

{"compound": "c1ccc(OCCN2CCOCC2)cc1 [N-(2-Phenoxi-ethyl-(1))-morpholin]", "Wirksamkeit in % Substanz +Talcord": "62,8%"}
{"compound": "C(CCCCN1CCOCC1)CCCN1CCOCC1 [1,8-N,N-Dimorpholino-octan]", "Wirksamkeit in % Substanz +Talcord": "50,8%"}
{"compound": "O=[N+]([O-])c1ccc(CN2CCCCC2)cc1 [N-4-Nitro-benzyl-piperidin]", "Wirksamkeit in % Substanz +Talcord": "20,0%"}
{"compound": "CCCCCN1CCCCC1 [N-1-Pentyl-piperidin]", "Wirksamkeit in % Substanz +Talcord": "20,0%"}
{"compound": "CCCCCC(CCCCC)N1CCCC1 [6-N-Pyrrolidino-undecan]", "Wirksamkeit in % Substanz +Talcord": "58,8%"}
{"compound": "c1cc2c(cc1CN1CCCC1)OCO2 [N-Piperonyl-pyrrolidin]", "Wirksamkeit in % Substanz +Talcord": "82,8%"}
{"compound": "CCCCCCCCCC(C)N1CCCC1 (stereo not shown) [N-2-Undecyl-pyrrolidin]", "Wirksamkeit in % Substanz +Talcord": "64,0%"}
{"compound": "c1ccc(C(c2ccccc2)N2CCOCC2)cc1 [N-Diphenyl-methyl-morpholin]", "Wirksamkeit in % Substanz +Talcord": "40,0%"}
{"compound": "CCCCCCCCN1CCCCC1 [N-1-Octyl-piperidin]", "Wirksamkeit in % Substanz +Talcord": "12,0%"}
{"compound": "CCCCCCCCCCN1CCCCCC1 [N-Decyl-hexamethylenimin]", "Wirksamkeit in % Substanz +Talcord": "62,8%"}
{"compound": "Clc1ccc(CN2CCCC2)cc1 [N-4-Chlor-benzyl-pyrrolidin]", "Wirksamkeit in % Substanz +Talcord": "22,8%"}
{"compound": "Clc1ccc(CN2CCCCC2)cc1 [N-4-Chlor-benzyl-piperidin]", "Wirksamkeit in % Substanz +Talcord": "46,8%"}
{"compound": "OCCN1CCOCC1 [N-Ethanol-morpholin]", "Wirksamkeit in % Substanz +Talcord": "38,8%"}
{"compound": "C(=Cc1ccccc1)CN1CCOCC1 [N-Cinnamyl-morpholin]", "Wirksamkeit in % Substanz +Talcord": "44,0%"}
{"compound": "CC(C)=CCCC(C)=CCCC(C)=CCN1CCCCC1 [N-Farnesyl-piperidin]", "Wirksamkeit in % Substanz +Talcord": "41,2%"}
{"compound": "CCOC(=O)CCN1CCOCC1 [N-Morpholino-propionsäure-ethylester]", "Wirksamkeit in % Substanz +Talcord": "26,8%"}

---

tested on: Kornkäfer (sitophilus granarius L); assay: whole plant or invertebrate; assay type: in vivo; settings: Pyrethroid : Amin 1 : 10, amine 0,1 mg/ml; 180 min
metric_name: % Wirkung Substanz +Talcord

{"compound": "CCCCCCCCCCCN1CCCC1 [N-1-Undecyl-pyrrolidin]", "observed_value": "72,0%"}
{"compound": "c1cc2c(cc1CN1CCCCC1)OCO2 [N-Piperonyl-piperidin]", "observed_value": "24,0%"}
{"compound": "CCCCCCCCCCCN1CCCCCC1 [N-1-Undecyl-hexamethylenimin]", "observed_value": "73,2%"}

---

Parameter: Wirksamkeit in % Substanz +Ripcord. Scope: all listed entries.
system: Kornkäfer (sitophilus granarius L); assay: whole plant or invertebrate; assay type: in vivo; conditions: amine 1 mg/ml mixed 1 : 1 with Ripcord 0,01 mg/ml; 3 h

{"compound": "CCCCC(CC)CN1CCCC1 (stereo not drawn) [N-1-(2-Ethyl)-hexyl-pyrrolidin]", "Wirksamkeit in % Substanz +Ripcord": "56,0%"}
{"compound": "C1CCC(N2CCCC2)CC1 [N-Cyclohexyl-pyrrolidin]", "Wirksamkeit in % Substanz +Ripcord": "68,0%"}
{"compound": "C(=Cc1ccccc1)CN1CCCCC1 [N-Cinnamyl-piperidin]", "Wirksamkeit in % Substanz +Ripcord": "97,2%"}
{"compound": "CCOC(=O)CCN1CCOCC1 [N-Morpholino-propionsäure-ethylester]", "Wirksamkeit in % Substanz +Ripcord": "65,2%"}
{"compound": "O=C(OCc1ccccc1)C(c1ccccc1)N1CCCCC1 (stereo not drawn)", "Wirksamkeit in % Substanz +Ripcord": "96,0%"}
{"compound": "C1CCN(CCOCCOCCN2CCCC2)C1 [1,2-Bis-(2-N-pyrrolidino-ethoxi)-ethan]", "Wirksamkeit in % Substanz +Ripcord": "100,0%"}
{"compound": "c1ccc(OCCN2CCCC2)cc1 [N-1-2-phenoxiethyl-pyrrolidin]", "Wirksamkeit in % Substanz +Ripcord": "53,2%"}
{"compound": "CCCCCCCCCCCN1CCCCCC1 [N-1-Undecyl-hexamethylenimin]", "Wirksamkeit in % Substanz +Ripcord": "73,1%"}
{"compound": "C(=Cc1ccccc1)CN1CCCC1 [1-Cinnamyl-pyrrolidin]", "Wirksamkeit in % Substanz +Ripcord": "97,2%"}
{"compound": "C(CCCCN1CCCCC1)CCCN1CCCCC1 [1,8-N,N-Di-piperidino-octan]", "Wirksamkeit in % Substanz +Ripcord": "90,8%"}
{"compound": "CCC(CC)N1CCCC1 [Pentyl-(3)-N-pyrrolidin]", "Wirksamkeit in % Substanz +Ripcord": "84,0%"}
{"compound": "c1cc2c(cc1CN1CCCCC1)OCO2 [N-Piperonyl-piperidin]", "Wirksamkeit in % Substanz +Ripcord": "90,8%"}
{"compound": "CCOC(=O)C(CC)N1CCCCC1 (stereo not drawn) [2-N-Piperidino-buttersäure-ethylester]", "Wirksamkeit in % Substanz +Ripcord": "61,2%"}
{"compound": "CCOCCN1CCCC1 [N-1-(1'-Ethoxiethyl-(2))-pyrrolidin]", "Wirksamkeit in % Substanz +Ripcord": "70,0%"}
{"compound": "CN(C)C(=O)N1CCCCC1 [N-Dimethyl-carbamoyl-piperidin]", "Wirksamkeit in % Substanz +Ripcord": "53,2%"}
{"compound": "CCCCCCCCCCCCCN1CCCC1 [N-1-Tridecyl-pyrrolidin]", "Wirksamkeit in % Substanz +Ripcord": "78,8%"}
{"compound": "OCCC(O)N1CCCC1 (stereo not drawn) [1-N-Pyrrolidino-propandiol-(1,3)]", "Wirksamkeit in % Substanz +Ripcord": "100,0%"}
{"compound": "CC(C)=CCC/C(C)=C\\CN1CCCCC1", "Wirksamkeit in % Substanz +Ripcord": "68,0%"}
{"compound": "C(=Cc1ccccc1)CN1CCOCC1 [N-Cinnamyl-morpholin]", "Wirksamkeit in % Substanz +Ripcord": "54,8%"}
{"compound": "CCCCCC(CCCCC)N1CCCC1 [6-N-Pyrrolidino-undecan]", "Wirksamkeit in % Substanz +Ripcord": "60,0%"}
{"compound": "C(CCCCCN1CCCC1)CCCCN1CCCC1 [1,10-N,N-Di-pyrrolidino-decan]", "Wirksamkeit in % Substanz +Ripcord": "80,0%"}
{"compound": "CCCCCCCCCCCCN1CCCC1 [N-1-Dodecyl-pyrrolidin]", "Wirksamkeit in % Substanz +Ripcord": "92,0%"}
{"compound": "CC(C)=CCCC(C)CCN1CCCCC1 (stereo not drawn) [N-Citronellyl-piperidin]", "Wirksamkeit in % Substanz +Ripcord": "78,8%"}
{"compound": "CCCCCCCCCCCCN1CCOCC1 [N-1-Dodecyl-morpholin]", "Wirksamkeit in % Substanz +Ripcord": "86,8%"}
{"compound": "CC(C)=CCCC(C)=CCN1CCCCC1", "Wirksamkeit in % Substanz +Ripcord": "88,0%"}
{"compound": "c1cc2c(cc1CN1CCCC1)OCO2 [N-Piperonyl-pyrrolidin]", "Wirksamkeit in % Substanz +Ripcord": "100,0%"}
{"compound": "CCC1CCCCN1Cc1ccccc1 (stereo not drawn) [N-Benzyl-2-ethyl-piperidin]", "Wirksamkeit in % Substanz +Ripcord": "78,8%"}
